Values compiled from the supplement of paper PMC10567573.

B1: RBBP5 (parent)
chain: TGTSNTTAIKSIEFARKGSCFLIN

- Variants of: B1
- assay-overview: protein stability index of a GFP-peptide fusion (GPS, HEK-293T) (PSI 1-6); higher = more stable;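 further: lentivirally expressed fusions sorted by FACS into six bins by GFP to DsRed ratio, PSI derived from sequencing read proportions per bin multiplied by bin number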
- measurement-setup: c terminus: a fixed tail appended
Rule: protein stability index of 2 or more gives condition met; anything lower gives condition not met.

- K10R: condition met
- S11T: condition met
- K17F: condition met
- R16W: condition not met
- T1I: condition not met

Threshold query (protein stability index >= 2) on T7G condition met

Would you say R16D shows protein stability index at minimum 2? condition met

# bool: protein stability index of N5Q >= 2 condition met

// inclusive: protein stability index at least 2? input: K10N condition not met

Check if protein stability index >= 2 (inclusive). Item: K17G condition met

Given E13L , state whether its protein stability index is at least 2. condition met
